# Protocol Details: Serum stability (LC-MS, MRM)
# Assay type: in vitro ADME, human
# Test Context: human, 37 °C, read-out: Serum Stability t1/2
Counter-ions that a name gives are not always drawn.
Endpoint: half-life at 5 µM (min)
Please reply with the bare figure in min and do not write the unit itself.

IN: # query: half-life at 5 µM of entry O=C(O)C(Cc1c[nH]cn1)NC(=O)C1CCCN1 [ProHis, L-Pro-L-His-OH dihydrochloride]
OUT: 33.4

IN: I would be grateful if you could share the reported half-life at 5 µM for NCCC(=O)N[C@@H](Cc1cnc[nH]1)C(=O)O [L-carnosine, reference compound] .
OUT: 1.17

IN: Requested read-out: half-life at 5 µM. Entry: NC(=O)[C@@H]1CCCN1C(=O)[C@H](Cc1cnc[nH]1)NC(=O)[C@@H]1CCC(=O)N1 [TRH, thyrotropin-releasing hormone, reference compound]
OUT: 24.4

IN: Would you mind telling me what half-life at 5 µM value was observed for NC(=O)C(Cc1c[nH]cn1)NC(=O)C1CCCN1 (centres unmarked) ?
OUT: 128

IN: Name the recorded half-life at 5 µM for NC(Cc1cnc[nH]1)C(=O)N1CCCC1C(=O)O (centres unmarked) .
OUT: 3.08
